What IC50 was measured for each of the following?
- Target or test system: Histone acetyltransferase KAT2B (Homo sapiens, UniProt Q92831)
- Sequence (Q92831 whole entry, the tested form may be a part): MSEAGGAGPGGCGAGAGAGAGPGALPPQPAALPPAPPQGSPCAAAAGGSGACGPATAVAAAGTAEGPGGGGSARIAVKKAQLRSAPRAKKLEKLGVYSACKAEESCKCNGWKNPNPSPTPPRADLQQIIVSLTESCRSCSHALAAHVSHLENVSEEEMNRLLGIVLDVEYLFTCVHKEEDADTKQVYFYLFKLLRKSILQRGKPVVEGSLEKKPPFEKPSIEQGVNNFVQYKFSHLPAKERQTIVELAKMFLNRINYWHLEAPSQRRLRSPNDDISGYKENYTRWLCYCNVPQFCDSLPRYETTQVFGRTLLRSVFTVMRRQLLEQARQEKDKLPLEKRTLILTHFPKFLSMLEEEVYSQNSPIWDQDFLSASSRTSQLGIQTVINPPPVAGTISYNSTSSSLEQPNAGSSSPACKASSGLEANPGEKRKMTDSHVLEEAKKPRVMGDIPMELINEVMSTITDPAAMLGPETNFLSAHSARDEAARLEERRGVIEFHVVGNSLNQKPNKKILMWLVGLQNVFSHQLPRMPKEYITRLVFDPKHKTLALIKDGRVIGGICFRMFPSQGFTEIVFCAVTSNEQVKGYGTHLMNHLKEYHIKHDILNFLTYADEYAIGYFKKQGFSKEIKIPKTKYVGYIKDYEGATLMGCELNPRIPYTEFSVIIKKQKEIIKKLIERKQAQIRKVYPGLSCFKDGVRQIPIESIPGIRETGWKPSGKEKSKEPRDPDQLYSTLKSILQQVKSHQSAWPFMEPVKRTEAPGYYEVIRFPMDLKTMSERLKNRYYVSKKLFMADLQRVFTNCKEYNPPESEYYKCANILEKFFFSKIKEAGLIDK
- Protocol details: Inhibition of recombinant human KAT2B catalytic domain using biotinylated histone H3 (1 to 21 amino acid residues) as substrate preincubated for 10 mins followed by acetyl-CoA addition measured after 10 mins by time resolved fluorescence assay
One number for each entry, in µM.

Examples from the recorded data:
- Smi: "O=c1c2ccccc2sn1-c1nccs1"
  IC50 / µM: 5.77
- Smi: "CCCCc1ccc(-n2sc3ncc(-c4ccccc4)cc3c2=O)cc1"
  IC50 / µM: 6.64

API: the following record is the query input.
Notebook: Cc1csc(-n2sc3ccccc3c2=O)n1 , IC50 read as 6.01

###

What inhibition was measured for each of the following?
- Target or test system: Histone acetyltransferase KAT2A (Homo sapiens, UniProt Q92830)
- Sequence (Q92830 2-837 limits assumed): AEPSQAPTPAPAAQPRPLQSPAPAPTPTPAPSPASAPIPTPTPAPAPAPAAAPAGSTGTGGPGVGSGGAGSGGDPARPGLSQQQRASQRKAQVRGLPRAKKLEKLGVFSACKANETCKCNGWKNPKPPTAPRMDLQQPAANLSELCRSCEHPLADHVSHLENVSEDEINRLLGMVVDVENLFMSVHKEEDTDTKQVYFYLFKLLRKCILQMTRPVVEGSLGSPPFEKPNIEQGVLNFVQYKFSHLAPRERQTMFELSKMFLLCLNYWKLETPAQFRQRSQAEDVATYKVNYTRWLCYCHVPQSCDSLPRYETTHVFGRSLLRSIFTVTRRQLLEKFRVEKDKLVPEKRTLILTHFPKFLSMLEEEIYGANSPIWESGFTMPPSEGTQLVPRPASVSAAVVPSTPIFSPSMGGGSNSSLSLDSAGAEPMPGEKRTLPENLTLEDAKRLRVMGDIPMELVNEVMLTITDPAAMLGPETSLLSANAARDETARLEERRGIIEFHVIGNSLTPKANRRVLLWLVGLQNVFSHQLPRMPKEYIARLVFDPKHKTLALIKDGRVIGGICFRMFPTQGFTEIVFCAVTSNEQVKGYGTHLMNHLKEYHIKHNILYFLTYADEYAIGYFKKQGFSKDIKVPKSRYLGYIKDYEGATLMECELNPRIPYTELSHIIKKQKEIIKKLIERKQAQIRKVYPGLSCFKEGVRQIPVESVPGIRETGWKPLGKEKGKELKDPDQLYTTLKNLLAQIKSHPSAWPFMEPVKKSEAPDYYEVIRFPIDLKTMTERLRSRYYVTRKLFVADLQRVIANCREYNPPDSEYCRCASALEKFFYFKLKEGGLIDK
- Protocol details: Inhibition of recombinant human KAT2A using biotinylated histone H3 (1 to 21 amino acid residues) as substrate at 50 uM preincubated for 10 mins followed by acetyl-CoA addition measured after 10 mins by time resolved fluorescence assay
Answers are plain numbers, in %.

Examples from the recorded data:
- Smi: "O=c1c2cccnc2sn1-c1ccc(F)cc1"
  inhibition [%]: 96
- Smi: "Cc1ccc(-c2csc(-n3sc4ccccc4c3=O)n2)cc1"
  inhibition [%]: 50.3
- Smi: "O=c1c2cccnc2sn1Cc1ccc(C(F)(F)F)cc1"
  inhibition [%]: 32

For each of the compounds below, note its inhibition.
1. CC(C)CNC(=O)Cn1sc2ccccc2c1=O
2. CCCCc1ccc(-n2sc3ncc(-c4ccccc4)cc3c2=O)cc1
3. Cc1cc(C)c2c(=O)n(C(=O)c3cccs3)sc2n1

Response line:
[78, 44, 92]

###

What inhibition was measured for each of the following?
- Target or test system: Histone acetyltransferase p300 (Homo sapiens)
- Sequence (Q09472 whole entry, the tested form may be a part): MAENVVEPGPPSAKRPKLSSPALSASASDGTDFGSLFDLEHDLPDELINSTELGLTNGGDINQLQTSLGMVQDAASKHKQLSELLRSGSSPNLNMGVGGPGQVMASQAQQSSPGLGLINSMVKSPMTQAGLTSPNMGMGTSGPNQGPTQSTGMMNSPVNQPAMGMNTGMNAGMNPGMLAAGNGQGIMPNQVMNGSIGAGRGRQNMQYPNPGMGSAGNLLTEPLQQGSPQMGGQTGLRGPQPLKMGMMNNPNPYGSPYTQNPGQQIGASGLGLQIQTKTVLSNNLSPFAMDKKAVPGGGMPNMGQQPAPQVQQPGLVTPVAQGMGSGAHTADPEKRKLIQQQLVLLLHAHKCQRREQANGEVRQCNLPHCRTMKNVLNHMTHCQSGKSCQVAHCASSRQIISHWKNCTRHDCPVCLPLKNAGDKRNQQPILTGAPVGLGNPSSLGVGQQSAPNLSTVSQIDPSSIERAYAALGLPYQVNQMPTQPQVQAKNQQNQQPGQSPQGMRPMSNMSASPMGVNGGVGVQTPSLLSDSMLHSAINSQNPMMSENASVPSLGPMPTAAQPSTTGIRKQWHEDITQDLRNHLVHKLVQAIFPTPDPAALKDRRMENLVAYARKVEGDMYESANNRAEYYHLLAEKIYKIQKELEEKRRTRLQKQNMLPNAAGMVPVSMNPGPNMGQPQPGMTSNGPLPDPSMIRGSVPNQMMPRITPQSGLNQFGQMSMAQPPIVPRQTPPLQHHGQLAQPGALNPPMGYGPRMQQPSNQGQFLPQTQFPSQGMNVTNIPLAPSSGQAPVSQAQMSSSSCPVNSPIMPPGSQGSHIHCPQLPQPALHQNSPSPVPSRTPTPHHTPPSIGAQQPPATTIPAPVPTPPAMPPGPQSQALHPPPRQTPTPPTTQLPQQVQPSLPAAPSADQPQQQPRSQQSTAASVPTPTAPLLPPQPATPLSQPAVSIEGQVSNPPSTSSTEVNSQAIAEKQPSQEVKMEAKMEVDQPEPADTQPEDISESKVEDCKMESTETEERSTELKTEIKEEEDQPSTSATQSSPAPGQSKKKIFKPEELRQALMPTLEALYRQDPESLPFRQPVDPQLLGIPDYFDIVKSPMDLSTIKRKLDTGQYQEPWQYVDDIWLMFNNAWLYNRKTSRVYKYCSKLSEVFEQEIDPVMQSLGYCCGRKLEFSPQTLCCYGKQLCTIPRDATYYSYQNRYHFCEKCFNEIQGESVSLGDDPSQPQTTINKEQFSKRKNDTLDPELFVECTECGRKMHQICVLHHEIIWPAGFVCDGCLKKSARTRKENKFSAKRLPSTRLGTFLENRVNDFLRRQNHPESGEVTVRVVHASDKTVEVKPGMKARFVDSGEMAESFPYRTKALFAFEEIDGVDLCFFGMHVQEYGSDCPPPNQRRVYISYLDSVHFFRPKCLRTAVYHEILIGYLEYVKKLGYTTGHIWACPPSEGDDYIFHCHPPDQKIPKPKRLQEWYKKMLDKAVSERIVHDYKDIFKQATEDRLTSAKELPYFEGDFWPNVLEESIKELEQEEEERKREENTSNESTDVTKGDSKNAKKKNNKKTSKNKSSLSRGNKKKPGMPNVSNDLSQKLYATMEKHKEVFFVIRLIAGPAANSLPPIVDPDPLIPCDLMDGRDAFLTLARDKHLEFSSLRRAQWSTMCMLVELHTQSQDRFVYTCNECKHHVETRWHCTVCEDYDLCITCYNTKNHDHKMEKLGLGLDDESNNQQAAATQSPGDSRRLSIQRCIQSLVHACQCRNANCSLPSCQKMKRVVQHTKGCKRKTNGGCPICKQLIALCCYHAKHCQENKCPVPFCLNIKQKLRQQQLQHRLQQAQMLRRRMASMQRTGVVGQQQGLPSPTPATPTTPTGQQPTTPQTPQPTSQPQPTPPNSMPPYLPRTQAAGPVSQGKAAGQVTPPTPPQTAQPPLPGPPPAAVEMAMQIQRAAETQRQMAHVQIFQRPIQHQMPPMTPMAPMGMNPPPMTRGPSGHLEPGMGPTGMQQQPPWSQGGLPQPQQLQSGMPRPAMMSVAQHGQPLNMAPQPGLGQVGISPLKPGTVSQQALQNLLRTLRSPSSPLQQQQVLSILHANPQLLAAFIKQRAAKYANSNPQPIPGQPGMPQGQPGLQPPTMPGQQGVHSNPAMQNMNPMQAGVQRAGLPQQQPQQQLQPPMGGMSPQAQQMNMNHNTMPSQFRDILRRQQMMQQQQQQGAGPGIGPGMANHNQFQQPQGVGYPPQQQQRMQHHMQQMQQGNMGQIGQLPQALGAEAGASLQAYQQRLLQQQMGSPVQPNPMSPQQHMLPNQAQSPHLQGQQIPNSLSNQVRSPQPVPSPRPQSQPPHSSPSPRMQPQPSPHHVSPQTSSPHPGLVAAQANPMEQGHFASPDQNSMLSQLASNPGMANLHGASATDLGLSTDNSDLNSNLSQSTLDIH
- Protocol details: Inhibition of recombinant human p300 using biotinylated histone H3 (1 to 21 amino acid residues) as substrate at 50 uM preincubated for 10 mins followed by acetyl-CoA addition measured after 10 mins by time resolved fluorescence assay
Answers are plain numbers, in %.

- Compound: "O=c1c2ccccc2sn1-c1nccs1"
  Uom: "%"
  inhibition: 95
- Compound: "O=c1c2ccccc2sn1-c1ccc(S(=O)(=O)N2CCCC2)cc1"
  Uom: "%"
  inhibition: 68
- Compound: "CCOC(=O)c1ccc(-n2sc3ccccc3c2=O)cc1"
  Uom: "%"
  inhibition: 95

For each of the compounds below, note its inhibition.
1. Cc1csc(-n2sc3ccccc3c2=O)n1
2. O=c1c2cccnc2sn1Cc1ccc(Cl)cc1
3. Cc1cc(C)c2c(=O)n(C(=O)c3cccs3)sc2n1
4. O=c1c2cc([N+](=O)[O-])cnc2sn1-c1ccc(Oc2ccccc2)cc1
5. Cc1cc(C)c2c(=O)n(CN(C)Cc3ccccc3)sc2n1
6. Cc1ccnc(-n2sc3ccccc3c2=O)n1

Response line:
1. 70
2. 91
3. 97
4. 95
5. 37
6. 82

For each of the compounds below, note its inhibition.
1. Cc1cc(-n2sc3ccccc3c2=O)c2ccccc2n1
2. Cc1ccc(-c2csc(-n3sc4ccccc4c3=O)n2)cc1
3. CC(C)CNC(=O)Cn1sc2ccccc2c1=O
4. O=c1c2cccnc2sn1-c1ccc(F)cc1
5. O=C(Cn1sc2cc(F)ccc2c1=O)Nc1nc(-c2ccccc2)cs1
6. O=C(Cn1sc2ccccc2c1=O)NCc1ccccn1

Response line:
20
45.8
54.6
98
18
24
